The reported measurements were obtained from patent US5326856A.

Quick reference: IC50 of the listed items.
tested on: activated platelets; test: Aggregometer assay; type: cell-based
chelating agent A = 3,5-di-(1-trimethylammoniumacetyl)-4-thiosemicarbazidobenzoic acid, dichloride salt
Use µM as the unit, but write only the number.

Chelating Agent A-NH-SYRGDVRGDF: chelating agent A coupled with SYRGDVRGDF-NH2 peptide ({chelating agent A}-SYRGDVRGDF-NH2); 19.3

# next substance below
May I ask what IC50 has been recorded for SYRGDVRGDF [reference compound] ? 28.8
